Biological target: human SGLT2 (Homo sapiens)
Sequence (P31639 whole entry): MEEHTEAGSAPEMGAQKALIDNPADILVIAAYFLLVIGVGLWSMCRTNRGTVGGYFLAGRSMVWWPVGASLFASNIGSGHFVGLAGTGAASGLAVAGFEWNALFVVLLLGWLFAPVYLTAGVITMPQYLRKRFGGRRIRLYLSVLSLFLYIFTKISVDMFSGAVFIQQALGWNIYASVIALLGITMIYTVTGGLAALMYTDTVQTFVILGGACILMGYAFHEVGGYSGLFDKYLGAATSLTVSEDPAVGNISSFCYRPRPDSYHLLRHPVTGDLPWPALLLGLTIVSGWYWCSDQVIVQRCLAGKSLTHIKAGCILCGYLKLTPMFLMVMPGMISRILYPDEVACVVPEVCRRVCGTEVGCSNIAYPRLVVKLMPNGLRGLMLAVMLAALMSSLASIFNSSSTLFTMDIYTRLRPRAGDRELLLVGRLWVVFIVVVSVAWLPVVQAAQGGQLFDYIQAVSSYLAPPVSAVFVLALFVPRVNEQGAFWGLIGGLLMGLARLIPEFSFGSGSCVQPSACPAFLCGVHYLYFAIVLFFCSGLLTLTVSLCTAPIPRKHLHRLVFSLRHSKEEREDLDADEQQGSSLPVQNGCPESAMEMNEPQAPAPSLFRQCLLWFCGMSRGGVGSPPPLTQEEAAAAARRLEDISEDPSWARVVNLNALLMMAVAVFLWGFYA
Assay: Cell-based assay for sodium-dependent glucose transport (14C-AMG uptake), CHOK-SGLT2
Conditions: CHO-K1 cells stably expressing human SGLT2; Na-dependent 14C-AMG uptake
pIC50: −log10 of the molar value.
recorded.metric: pIC50

{"chemical.structure": "OC[C@H]1O[C@@H](Oc2cccc3[nH]cc(Cc4ccc(-c5cccnc5)cc4)c23)[C@H](O)[C@@H](O)[C@@H]1O", "pIC50": 6.88}
{"chemical.structure": "CCc1ccc(Cc2c[nH]c3cc(C)cc(O[C@@H]4O[C@H](CO)[C@@H](O)[C@H](O)[C@H]4O)c23)cc1", "pIC50": 6.93}

[A] CCc1ccc(Cc2c[nH]c3cccc(O[C@@H]4O[C@H](COC(=O)OC)[C@@H](O)[C@H](O)[C@H]4O)c23)cc1
[B] OC[C@H]1O[C@@H](Oc2cccc3[nH]cc(CCc4ccc5c(c4)OCO5)c23)[C@H](O)[C@@H](O)[C@@H]1O
Pick one: A or B . Which has the bigger pIC50 number? Your answer should be the label of the entry you select.
B
(B: 7.01, A: 6.18)
